molecular target: CCR3 (Homo sapiens); assay: PathHunter β-arrestin assay, positive allosteric modulation (PAM) mode; type: cell-based; conditions: dose-response, control agonist at EC20; read-out: EC50 (PAM)
Sequence (P51677 whole entry): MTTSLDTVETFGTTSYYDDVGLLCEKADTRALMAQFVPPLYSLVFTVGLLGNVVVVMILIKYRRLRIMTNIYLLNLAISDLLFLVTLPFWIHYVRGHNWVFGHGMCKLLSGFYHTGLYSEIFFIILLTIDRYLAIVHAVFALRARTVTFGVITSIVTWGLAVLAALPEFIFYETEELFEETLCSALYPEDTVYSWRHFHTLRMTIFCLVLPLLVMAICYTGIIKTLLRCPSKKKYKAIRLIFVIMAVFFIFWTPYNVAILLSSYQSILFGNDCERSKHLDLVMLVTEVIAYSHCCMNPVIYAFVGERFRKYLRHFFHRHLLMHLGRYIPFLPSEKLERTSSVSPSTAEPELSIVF
EXPERIMENTAL_READOUT: EC50 (µM)
Numbers only; they are read as µM.

# compound COc1cc2ccnc3c2c(c1OC)NC=C3 [aaptamine] ; its EC50 = 16.2

* * *

Target: UniProt P49682
Sequence (P49682 whole entry): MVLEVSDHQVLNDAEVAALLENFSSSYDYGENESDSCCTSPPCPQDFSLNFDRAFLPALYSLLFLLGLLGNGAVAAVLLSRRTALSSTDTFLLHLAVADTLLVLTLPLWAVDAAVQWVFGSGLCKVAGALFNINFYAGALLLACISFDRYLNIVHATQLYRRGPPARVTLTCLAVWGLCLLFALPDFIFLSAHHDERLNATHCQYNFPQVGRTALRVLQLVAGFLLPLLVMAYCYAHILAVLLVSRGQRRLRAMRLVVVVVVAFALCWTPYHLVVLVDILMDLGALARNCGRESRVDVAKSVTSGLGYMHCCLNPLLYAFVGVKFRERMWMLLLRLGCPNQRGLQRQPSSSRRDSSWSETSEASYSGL
Test: PathHunter β-arrestin assay, positive allosteric modulation (PAM) mode
Type: cell-based
Conditions: dose-response, control agonist at EC20; read-out: EC50 (PAM)
Description: Hit validation was performed by subjecting the aaptamine to an agonist, antagonist, and positive allosteric modulation (PAM) secondary screen utilizing thirteen GPCR biosensor assays (Arrestin) against the following targets: ADRA2A, ADRA2C, ADRB2, CCR1, CCR3, CXCR3, CXCR7, DRD2L, DRD2S, DRD4, HTR1E, OPRK1, and SSTR1. The assays were performed at 10-point concentrations using three-fold serial dilutions in duplicate. For all the assay formats, the final assay vehicle concentration was 1%. […]
EXPERIMENTAL_READOUT: EC50 (µM)
Entry rule: numbers only, all in µM.

Just so you know, measured EC50 for COc1cc2ccnc3c2c(c1OC)NC=C3 came out at 31.8

* * *

biological target: CCR1 (Homo sapiens); experiment: PathHunter β-arrestin assay, agonist mode; settings: dose-response, agonist mode
Sequence (P32246 whole entry): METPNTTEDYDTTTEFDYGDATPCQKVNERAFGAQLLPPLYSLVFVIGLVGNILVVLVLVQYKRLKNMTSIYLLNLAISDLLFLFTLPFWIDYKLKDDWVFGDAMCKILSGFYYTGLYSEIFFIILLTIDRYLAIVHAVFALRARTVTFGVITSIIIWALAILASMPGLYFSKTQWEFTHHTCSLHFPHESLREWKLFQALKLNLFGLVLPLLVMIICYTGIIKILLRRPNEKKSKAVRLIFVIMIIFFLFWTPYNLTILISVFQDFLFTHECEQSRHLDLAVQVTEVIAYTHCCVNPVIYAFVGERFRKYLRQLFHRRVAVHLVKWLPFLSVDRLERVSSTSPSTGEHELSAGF
EXPERIMENTAL_READOUT: pEC50
Kindly note that pEC50 refers to -log10 of the concentration in mol/L and answer with the value alone.

# compound COc1cc2ccnc3c2c(c1OC)NC=C3 ; its pEC50 = 4.93

* * *

Target: DRD4 (Homo sapiens)
Sequence (P21917 1-419): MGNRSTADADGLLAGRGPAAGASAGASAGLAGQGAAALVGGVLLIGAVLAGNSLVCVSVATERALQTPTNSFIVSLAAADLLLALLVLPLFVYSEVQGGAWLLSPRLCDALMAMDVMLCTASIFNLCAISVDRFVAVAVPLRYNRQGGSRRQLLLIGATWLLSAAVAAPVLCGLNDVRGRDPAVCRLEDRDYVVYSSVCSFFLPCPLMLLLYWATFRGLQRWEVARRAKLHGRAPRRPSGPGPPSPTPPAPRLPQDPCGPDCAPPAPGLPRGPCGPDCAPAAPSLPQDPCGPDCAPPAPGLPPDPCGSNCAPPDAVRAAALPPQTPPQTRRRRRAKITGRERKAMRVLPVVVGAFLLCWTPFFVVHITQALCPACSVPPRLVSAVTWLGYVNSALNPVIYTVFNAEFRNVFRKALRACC
Assay: PathHunter β-arrestin assay, antagonist mode
Conditions: dose-response, antagonist mode
EXPERIMENTAL_READOUT: IC50
Answer by giving the amount and then stating its unit.

The reported DRD4 (Homo sapiens) IC50 of COc1cc2ccnc3c2c(c1OC)NC=C3 is 6.9 µM

* * *

biological target: CXCR7 (Homo sapiens, UniProt P25106); experiment: PathHunter β-arrestin assay, agonist mode; settings: dose-response, agonist mode
Sequence (P25106 whole entry): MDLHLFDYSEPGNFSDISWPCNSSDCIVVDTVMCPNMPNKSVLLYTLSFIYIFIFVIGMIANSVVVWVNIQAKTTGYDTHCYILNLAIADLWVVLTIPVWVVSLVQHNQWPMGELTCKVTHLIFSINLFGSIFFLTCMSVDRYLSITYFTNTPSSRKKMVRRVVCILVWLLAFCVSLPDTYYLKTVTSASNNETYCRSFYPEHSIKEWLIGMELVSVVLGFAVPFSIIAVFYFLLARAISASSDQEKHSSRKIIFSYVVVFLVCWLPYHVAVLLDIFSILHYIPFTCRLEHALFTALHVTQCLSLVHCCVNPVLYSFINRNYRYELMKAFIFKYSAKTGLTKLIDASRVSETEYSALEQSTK
EXPERIMENTAL_READOUT: pEC50
Hey, just a heads up that pEC50 is the negative log base 10 of the concentration in molar.

The compound listed as COc1cc2ccnc3c2c(c1OC)NC=C3 [aaptamine] has a reported pEC50 of 5.21

* * *

target: DRD2L (Homo sapiens); test: PathHunter β-arrestin assay, antagonist mode; conditions: dose-response, antagonist mode
Sequence (P14416 whole entry): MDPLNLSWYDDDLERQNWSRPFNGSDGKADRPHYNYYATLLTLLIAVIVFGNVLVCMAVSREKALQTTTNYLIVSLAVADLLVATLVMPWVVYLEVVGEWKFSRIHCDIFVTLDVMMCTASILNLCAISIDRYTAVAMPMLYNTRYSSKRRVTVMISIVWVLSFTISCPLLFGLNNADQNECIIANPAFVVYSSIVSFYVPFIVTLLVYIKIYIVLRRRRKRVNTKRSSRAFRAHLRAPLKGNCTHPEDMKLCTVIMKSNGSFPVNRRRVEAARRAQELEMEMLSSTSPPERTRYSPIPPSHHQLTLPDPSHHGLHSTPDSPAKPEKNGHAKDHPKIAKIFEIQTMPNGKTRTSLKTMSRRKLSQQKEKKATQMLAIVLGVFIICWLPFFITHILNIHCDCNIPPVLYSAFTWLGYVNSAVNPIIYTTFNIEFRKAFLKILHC
EXPERIMENTAL_READOUT: pIC50
Here pIC50 is given on a logarithmic scale as minus log10 of the concentration in mol/L.

// recorded pIC50 for COc1cc2ccnc3c2c(c1OC)NC=C3 : 4.41
